Recorded values, source patent US20240132624A1.

# Tested system: T1, human FcRn/b2M (human, UniProt P61769 21-119, biotinylated)
# T1 construct: bought recombinant biotinylated protein (ACRO FCM-H82W4 or Immunitrack ITF01); also called hFcRn; hFcRn/hb2M
# Measurement description: SPR pH 6.0
Measurement label: koff (s⁻¹)

Here is how some binders turned out for koff.
>  <Binder>
T026301121 (VHH, name in Kabat numbering, tagless) VHH: EVQLVESGGGVVQPGGSLRLSCAASTFTFSEYDMYWVRQAPGKGLEWVSAISQGGGSTDYADSVKGRFTISRDNSKNTLYLQMNSLRPEDTALYYCAADTLYTSLTWYSYWGQGTLVTVSS

>  <U>
s⁻¹

>  <koff>
0.0018

$$$$
>  <Binder>
T026301057 (VHH, name in Kabat numbering, tagless) VHH: EVQLVESGGGVVQPGGSLRLSCAASGFTFSEYAMYWVRQAPGKGLEWVSAISQGGGSTDYADSVKGRFTISRDNSKNTLYLQMNSLRPEDTALYYCAADTLYTSLTSYSYWGQGTLVTVSS

>  <U>
s⁻¹

>  <koff>
0.016

$$$$
>  <Binder>
T026301098 (VHH, name in Kabat numbering, tagless; also called T0263018B11 S31D) VHH: EVQLVESGGGVVQPGGSLRLSCAASGFTFSDYAMYWVRQAPGKGLEWVSAISSGGGSTDYADSVKGRFTISRDNSKNTLYLQMNSLRPEDTALYYCAADTLYTSLTWYSYWGQGTLVTVSS

>  <U>
s⁻¹

>  <koff>
0.013

$$$$
>  <Binder>
T026301050 (VHH, name in Kabat numbering, tagless) VHH: EVQLVESGGGVVQPGGSLRLSCAASTFTFSSYAMYWVRQAPGKGLEWVSAISQGGGSTDYADSVKGRFTISRDNSKNTLYLQMNSLRPEDTALYYCAADTLYTDLTWYSYWGQGTLVTVSS

>  <U>
s⁻¹

>  <koff>
0.029

$$$$

1: T026301076 (VHH, name in Kabat numbering, tagless) VHH: EVQLVESGGGVVQPGGSLRLSCAASGFTFSSYDMYWVRQAPGKGLEWVSAISQGGGSTDYADSVKGRFTISRDNSKNTLYLQMNSLRPEDTALYYCAADTLYTSLTKYSYWGQGTLVTVSS
2: T026301084 (VHH, name in Kabat numbering, tagless) VHH: EVQLVESGGGVVQPGGSLRLSCAASGFTFSSYAMYWVRQAPGKGLEWVSAISSGGGSTDYADSVKGRFTISRDNSKNTLYLQMNSLRPEDTALYYCAADTLYTDLTSYSYWGQGTLVTVSS
3: T026301070 (VHH, name in Kabat numbering, tagless) VHH: EVQLVESGGGVVQPGGSLRLSCAASGFTFSEYDMYWVRQAPGKGLEWVSAISQGGGSTDYADSVKGRFTISRDNSKNTLYLQMNSLRPEDTALYYCAADTLYTSLTSYSYWGQGTLVTVSS
4: T026301051 (VHH, name in Kabat numbering, tagless) VHH: EVQLVESGGGVVQPGGSLRLSCAASGFTFSSYDMYWVRQAPGKGLEWVSAISSGGGSTDYADSVKGRFTISRDNSKNTLYLQMNSLRPEDTALYYCAADTLYTDLTWYSYWGQGTLVTVSS
5: T026301128 (VHH, name in Kabat numbering, tagless) VHH: EVQLVESGGGVVQPGGSLRLSCAASGFTFSSYAMYWVRQAPGKGLEWVSAISQGGGSTDYADSVKGRFTISRDNSKNTLYLQMNSLRPEDTALYYCAADTLYTDLTKYSYWGQGTLVTVSS
Task item: Sort these binders on koff so the largest reading comes first. Sort the labels as requested; that list is your answer.
Reply: 5, 2, 4, 3, 1
